target: PRMT1 (Homo sapiens)
assay-summary: PRMT1 Enzymatic Assay (LANCE TR-FRET, methylation of histone H4 at Arg3)
Format: biochemical
Design: purchased SignalChem P365-380G
measurement-context: PRMT1 1.5 nM, SAM 1 μM, biotinylated histone H4 (1-21) 25 nM; read-out: PRMT-1 IC50
Catalogue of molecules with associated IC50
Respond numerically; units are nM and should not be typed.

Reported IC50 (PRMT1 (Homo sapiens)) for entry COCC1(COC)CCC(c2c(CN(C)CCN)nn3c2CN(C(=O)C2CC2)CC3)CC1 [Example 6] is 14

* * *

Catalogue of molecules with associated pIC50
target: PRMT1 (Homo sapiens, UniProt Q99873)
Sequence (Q99873 whole entry): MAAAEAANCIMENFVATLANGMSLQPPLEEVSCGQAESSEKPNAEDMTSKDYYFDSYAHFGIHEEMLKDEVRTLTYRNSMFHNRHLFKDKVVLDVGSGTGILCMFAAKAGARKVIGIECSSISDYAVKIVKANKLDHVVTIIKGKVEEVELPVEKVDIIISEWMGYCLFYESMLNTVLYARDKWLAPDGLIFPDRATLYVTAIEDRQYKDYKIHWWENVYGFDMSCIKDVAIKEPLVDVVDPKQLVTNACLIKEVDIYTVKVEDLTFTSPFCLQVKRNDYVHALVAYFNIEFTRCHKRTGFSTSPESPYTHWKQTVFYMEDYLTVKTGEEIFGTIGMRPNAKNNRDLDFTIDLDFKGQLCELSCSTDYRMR
assay-summary: PRMT1 Enzymatic Assay (LANCE TR-FRET, methylation of histone H4 at Arg3)
Format: biochemical
Design: purchased SignalChem P365-380G
measurement-context: PRMT1 1.5 nM, SAM 1 μM, biotinylated histone H4 (1-21) 25 nM; read-out: PRMT-1 IC50
Procedure: In order to measure PRMT1 enzymatic activity the LANCE TR-FRET assay from PerkinElmer was used to follow the methylation of histone H4 at Arg3 using S-adenosyl-L-methionine (SAM) as the methyl group donor. This enzymatic assay was performed in a 384 well, white, low volume plate (PerkinElmer, Catalog 6008289) with assay buffer consisting of 50 mM Hepes (pH 8) (Teknova, Catalog #H1090), 1 mM TCEP (Sigma, Catalog #C4706), and 0.003% Tween-20 (Thermo, Catalog #85114). […]
Lab note: report pIC50 as minus log10 of the concentration in molar units, number only.

Examples with answers:
{"columns": ["molecule", "pIC50"],
 "data": [
  ["COCC1(COC)CCC(c2c(CN(C)CCN)nn3c2CN(C(=O)C(C)C)CC3)CC1", 7.57],
  ["CNCCN(C)Cc1nn2c(c1C1CCC(COC)(COC)CC1)CN(C(=O)C1CC(C)(O)C1)CC2 (centres unmarked)", 7.15],
  ["CNCCN(C)Cc1nn2c(c1C1CCC(COC)(COC)CC1)CN(C(=O)C(C)C#N)CC2 (centres unmarked)", 6.99],
  ["COCC1(COC)CCC(c2c(CN(C)CCN)nn3c2CN(C(=O)C2CC(C)(C)C2)CC3)CC1", 7.64],
  ["CNCCN(C)Cc1nn2c(c1C1CCC(COC)(COC)CC1)CN(C(=O)C1(OC)CCC1)CC2", 6.86]
]}

pIC50 reported for this molecule `CNCCN(C)Cc1nn2c(c1C1CCC(COC)(COC)CC1)CN(C(=O)C(C)(C)C1CCC1)CC2` : 7.17

pIC50 reported for this molecule `COCC1(COC)CCC(c2c(CN(C)CCN)nn3c2CN(C(=O)C(C)(C)C)CC3)CC1` : 7.80

pIC50 reported for this molecule `CCOCC1(COCC)CCC(c2c(CN(C)CCNC)nn3c2CN(C(=O)CC(F)(F)F)CC3)CC1` : 7.24

pIC50 reported for this molecule `CNCCN(C)Cc1nn2c(c1C1CCC(COC)(COC)CC1)CN(C(=O)C1(F)CC1)CC2` : 7.25

pIC50 reported for this molecule `CNCCN(C)Cc1nn2c(c1C1CCC(COC)(COC)CC1)CN(C(=O)C13CC(OC)(C1)C3)CC2` : 7.09

pIC50 reported for this molecule `CNCCN(C)Cc1nn2c(c1C1CCC(COC)(COC)CC1)CN(C(=O)C13CC(C1)C3)CC2` : 7.21

pIC50 reported for this molecule `COCC1(COC)CCC(c2c(CN(C)CCN)nn3c2CN(C(=O)C2CCC2)CC3)CC1` : 7.80

pIC50 reported for this molecule CNCCN(C)Cc1nn2c(c1C1CCC(COC)(COC)CC1)CN(C(=O)C1CCCO1)CC2 (centres unmarked) : 7.34

pIC50 reported for this molecule `CNCCN(C)Cc1nn2c(c1C1CCC(COC)(COC)CC1)CN(C(=O)C13CC(F)(C1)C3)CC2` : 7.28

pIC50 reported for this molecule CNCCN(C)Cc1nn2c(c1C1CCC(COC)(COC)CC1)CN(C(=O)C1CCOC1)CC2 (centres unmarked) : 7.21

pIC50 reported for this molecule `CNCCN(C)Cc1nn2c(c1C1CCC(COC)(COC)CC1)CN(C(=O)C(C)(C)OC)CC2` : 6.49

pIC50 reported for this molecule `CNCCN(C)Cc1nn2c(c1C1CCC(COC)(COC)CC1)CN(C(=O)C1(C)CCC1)CC2` : 7.28

pIC50 reported for this molecule CNCCN(C)Cc1nn2c(c1C1CCC(COC)(COC)CC1)CN(C(=O)C1CC(C(F)F)C1)CC2 (centres unmarked) : 7.28

pIC50 reported for this molecule `CNCCN(C)Cc1nn2c(c1C1CCC(COC)(COC)CC1)CN(C(=O)C1(C#N)CCC1)CC2` : 7.14

pIC50 reported for this molecule `COCC1(COC)CCC(c2c(CN(C)CCN)nn3c2CN(C(=O)C2(F)CC2)CC3)CC1` : 7.82

pIC50 reported for this molecule `COCC1(COC)CCC(c2c(CN(C)CCN)nn3c2CN(C(=O)C2(C(F)(F)F)CC2)CC3)CC1` : 7.54

pIC50 reported for this molecule `CCC1(C(=O)N2CCn3nc(CN(C)CCNC)c(C4CCC(COC)(COC)CC4)c3C2)CCC1` : 7.12

pIC50 reported for this molecule `CNCCN(C)Cc1nn2c(c1C1CCC(COC)(COC)CC1)CN(C(=O)C1CCOCC1)CC2` : 6.97

pIC50 reported for this molecule `COCC1(COC)CCC(c2c(CN(C)CCN)nn3c2CN(C(=O)C2CCC(F)(F)CC2)CC3)CC1` : 7.77

pIC50 reported for this molecule `CNCCN(C)Cc1nn2c(c1C1CCC(COC)(COC)CC1)CN(C(=O)C(C)C)CC2` : 7.12

pIC50 reported for this molecule `CNCCN(C)Cc1nn2c(c1C1CCC(COC)(COC)CC1)CN(C(C)=O)CC2` : 7.15

pIC50 reported for this molecule `CNCCN(C)Cc1nn2c(c1C1CCC(COC)(COC)CC1)CN(C(=O)C1CC1)CC2` : 7.47

From: patent US20230416261A1
